- ASSAY_INFO: NCI Yeast Anticancer Drug Screen. Data for the rad50 strain (AID 155)
- CONDITION_PARAMETERS: S. cerevisiae rad50 strain growth inhibition; at 50.0 µM (retest, dose inferred, filed as 5.0); active compounds read high
About 79,000 compounds went through this panel and 15% of them were active in at least one assay; those are over-represented in the sample as a whole.
Class Criterion met: growth inhibition at least 90%. Class Criterion not met: growth inhibition below 90%.

- COMPOUND: "O=[N+]([O-])c1cc(-c2ccccc2)ccc1O"
  ANSWER_LABEL: "Criterion not met"
- COMPOUND: "C[C@H]1CC[C@@]2(NC1)O[C@H]1C[C@H]3[C@@H]4CC[C@H]5C[C@@H](O)CC[C@]5(C)[C@H]4CC[C@]3(C)[C@H]1[C@@H]2C"
  ANSWER_LABEL: "Criterion met"
- COMPOUND: "CC(=O)[CH-]C(C)=O.CC(=O)[CH-]C(C)=O.N=CC=N.[Sn+2]"
  ANSWER_LABEL: "Criterion met"
- COMPOUND: "c1ccc(C[As](c2ccccc2)c2ccccc2)cc1"
  ANSWER_LABEL: "Criterion not met"
- COMPOUND: "CN(CCCl)Cc1ccc(OCc2ccccc2)c(OCc2ccccc2)c1"
  ANSWER_LABEL: "Criterion met"
- COMPOUND: "O=C(N/N=C/c1cc(Br)cc(Br)c1[O-])c1ccccc1O.O=C(N/N=C/c1cc(Br)cc(Br)c1[O-])c1ccccc1O.[Co+2]"
  ANSWER_LABEL: "Criterion met"
- COMPOUND: "Nc1c([N+](=O)[O-])cc(Cl)cc1[N+](=O)[O-]"
  ANSWER_LABEL: "Criterion not met"
- COMPOUND: "NC(=O)c1ccc(C(=O)Nc2ccc([As](=O)(O)O)cc2)cc1"
  ANSWER_LABEL: "Criterion not met"
- COMPOUND: "Cc1cc(CCN)c(C)c2c1sc1ccccc12"
  ANSWER_LABEL: "Criterion met"
- COMPOUND: "O=C(N/N=C/c1cc(Br)cc(Br)c1[O-])c1ccccc1O.O=C(N/N=C/c1cc(Br)cc(Br)c1[O-])c1ccccc1O.[Mn+2]"
  ANSWER_LABEL: "Criterion met"
- COMPOUND: "O=C(C[n+]1ccccc1)C1CCc2ccccc2C1 (centres undefined)"
  ANSWER_LABEL: "Criterion not met"
- COMPOUND: "CCC(=O)O.[Ag]"
  ANSWER_LABEL: "Criterion met"
- COMPOUND: "CC(=O)[O-].CC(=O)[O-].O=C(N/N=C/c1cc(Cl)cc(Cl)c1[OH2+])c1ccncc1.[Zn+2]"
  ANSWER_LABEL: "Criterion not met"
- COMPOUND: "CN1CCN(c2ccc3nc(-c4ccc5nc(-c6ccc(N(C)CCCl)cc6)[nH]c5c4)[nH]c3c2)CC1"
  ANSWER_LABEL: "Criterion met"
- COMPOUND: "CNP1(=O)OC(c2ccccc2)=CCN1CCCl (centres undefined)"
  ANSWER_LABEL: "Criterion not met"
- COMPOUND: "Oc1c(Cl)c(Cl)cc(Cl)c1Cc1c(Cl)cc(Cl)c(Cl)c1[O][Pb]([c]1ccccc1)([c]1ccccc1)[c]1ccccc1"
  ANSWER_LABEL: "Criterion not met"
- COMPOUND: "CC(=O)[CH-]C(C)=O.CC(=O)[CH-]C(C)=O.[O-]c1ccccc1.[O-]c1ccccc1.[Ti+4]"
  ANSWER_LABEL: "Criterion not met"
- COMPOUND: "CN(CCCl)c1ccc(/C=C/C2=[N+](C)c3ccccc3C2(C)C)cc1"
  ANSWER_LABEL: "Criterion met"
- COMPOUND: "CN1C2CCC1c1c([nH]c3ccccc13)C2 (centres undefined)"
  ANSWER_LABEL: "Criterion not met"
- COMPOUND: "CC(=O)c1ccccc1O.CO.CO.[Cl][Ta][Cl]"
  ANSWER_LABEL: "Criterion not met"
- COMPOUND: "CSCCC([NH-])C(=O)O.CSCCC([NH-])C(=O)O.[Zn+2] (centres undefined)"
  ANSWER_LABEL: "Criterion not met"
- COMPOUND: "c1ccc(C(c2ccccc2)c2cccnc2)cc1"
  ANSWER_LABEL: "Criterion met"
- COMPOUND: "COc1ccc(NN=O)nc1"
  ANSWER_LABEL: "Criterion not met"
- COMPOUND: "COC1OC(CO)C(O)C(O)[CH]1[Hg][Cl] (centres undefined)"
  ANSWER_LABEL: "Criterion met"
- COMPOUND: "Clc1ccc2c(c1)C(c1ccccc1Cl)=NCC(SCCN1CCOCC1)=N2"
  ANSWER_LABEL: "Criterion met"
- COMPOUND: "COc1cc(/C=C/[N+](=O)[O-])c(OC)cc1Br"
  ANSWER_LABEL: "Criterion not met"
- COMPOUND: "OCC1N2CCC(CC2)C1(O)O (centres undefined)"
  ANSWER_LABEL: "Criterion not met"
- COMPOUND: "ClCCN1CCOCC1"
  ANSWER_LABEL: "Criterion met"
- COMPOUND: "O=C(c1ccccc1)c1c(CC(O)c2cccnc2)n(C(=O)c2ccccc2)c2ccccc12 (centres undefined)"
  ANSWER_LABEL: "Criterion met"
- COMPOUND: "CN(C)c1ccc(N=Nc2cccc(C(=O)[O-])c2)cc1.CN(C)c1ccc(N=Nc2cccc(C(=O)[O-])c2)cc1.NC1CCCCC1N.O=[N+]([O-])O.[Pt+4]"
  ANSWER_LABEL: "Criterion met"
- COMPOUND: "CC(c1ccccc1)N1O[C@]12CC[C@@]1(C)C(CCCC13OCCO3)C2 (some centres undefined)"
  ANSWER_LABEL: "Criterion met"
- COMPOUND: "O=[N+]([O-])c1cccc(SC(Cl)(Cl)Cl)c1"
  ANSWER_LABEL: "Criterion met"
- COMPOUND: "Nc1ccccc1O.O.O=C(O)C1[O][Sb][O]C1C(=O)O (centres undefined)"
  ANSWER_LABEL: "Criterion not met"
- COMPOUND: "COC(C)(C)[CH]([Hg][Cl])n1ccccc1=O (centres undefined)"
  ANSWER_LABEL: "Criterion met"
- COMPOUND: "Oc1c(Cl)cc(Cl)cc1Cl.[Cu+2]"
  ANSWER_LABEL: "Criterion met"
- COMPOUND: "CN1C(=O)C2(C)SSC1(C)C(=O)N2C"
  ANSWER_LABEL: "Criterion met"
- COMPOUND: "O=Cc1ccccc1O.O=Cc1ccccc1O.[O]=[Mo]=[O]"
  ANSWER_LABEL: "Criterion not met"
- COMPOUND: "C1OCC2[CH2][Hg][S][Hg][CH2]C1O2"
  ANSWER_LABEL: "Criterion met"
- COMPOUND: "O=[As]c1ccc(O)c(O)c1 (centres undefined)"
  ANSWER_LABEL: "Criterion met"
- COMPOUND: "CCOC(=O)c1ccc(NP(=O)(Oc2ccccc2)Oc2ccccc2)cc1"
  ANSWER_LABEL: "Criterion not met"
- COMPOUND: "CC(=O)[O][Hg][c]1ccc(N)[c]([Hg][O]C(C)=O)c1"
  ANSWER_LABEL: "Criterion met"
- COMPOUND: "COc1cc(OC)c(/C=C(\\C)[N+](=O)[O-])cc1Br"
  ANSWER_LABEL: "Criterion not met"
